- Target: T1, murine CD22 protein (ACROBiosystems, SI2-M52Ha) (murine, UniProt P35329 22-708)
- T1 construct: extracellular domain; also called murine CD22-ECD; murine CD22-ECD-His
- T1 sequence (looked up): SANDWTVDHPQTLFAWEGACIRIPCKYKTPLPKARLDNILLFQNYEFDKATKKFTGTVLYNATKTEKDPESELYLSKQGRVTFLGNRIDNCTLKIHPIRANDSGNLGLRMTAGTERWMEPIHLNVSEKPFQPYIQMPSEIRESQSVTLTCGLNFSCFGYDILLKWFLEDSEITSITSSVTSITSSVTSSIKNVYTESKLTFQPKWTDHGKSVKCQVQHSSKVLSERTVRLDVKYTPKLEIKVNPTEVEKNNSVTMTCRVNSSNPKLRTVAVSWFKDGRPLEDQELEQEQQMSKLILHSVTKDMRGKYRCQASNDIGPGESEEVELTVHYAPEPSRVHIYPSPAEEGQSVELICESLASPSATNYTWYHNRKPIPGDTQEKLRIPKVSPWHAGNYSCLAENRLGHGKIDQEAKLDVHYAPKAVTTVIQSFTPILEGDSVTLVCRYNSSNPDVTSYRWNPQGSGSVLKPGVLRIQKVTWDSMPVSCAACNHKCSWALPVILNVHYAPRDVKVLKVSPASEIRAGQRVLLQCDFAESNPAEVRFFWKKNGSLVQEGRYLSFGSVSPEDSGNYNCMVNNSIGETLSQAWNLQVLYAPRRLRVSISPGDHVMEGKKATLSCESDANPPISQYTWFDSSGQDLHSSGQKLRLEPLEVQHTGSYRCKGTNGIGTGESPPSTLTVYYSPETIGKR
- Assay name: ELISA, coated murine CD22, 0.001 nM Ab
Measured property: OD450 (OD450)
Enter your answer as a number in OD450; do not include the unit.

Tell me OD450 reported for F1.62.10 human-murine chimeric antibody (antibody, human IgG1, kappa, V domains shown, Chimeric, human IgG1 / kappa) VH: QVQLQQSGPELVKPGASVKISCKASGYEFSSIWMNWVKQRPGEGLEWIGRIFPGDGEINYNEKFKGKATLTADRSSTTAYMQLSSLTSEDSAVYFCAGWRIYYGTYGAMDYWGQGTSVTVSS VL: DIQMTQITSSLSASLGDRVTISCRASQDIGNYLNWYQQKPDGTVKLLIYYTSRLHSGVPSRFSGSGSRTDYSLTISNLQQEDIATYFCQQGNTLPWTFGGGTKLEIKR
0.05

Tell me OD450 reported for F2.99.1 human-murine chimeric antibody (antibody, human IgG1, lambda, V domains shown, Chimeric, human IgG1 / lambda; VL tied by name) VH: QVTLKESGPGILQPSQTLSLTCSFSGFSLSTFPMGVGWIRQPSGKGLEWLAHIWWDDDEYYNPVLKSRLTISKDTSKKQVYLRIANVDTVDTATYYCTRANWDRWYFDVWGTGTTVTVSS VL: QLVLTQSSSASFSLGASAKLTCTLSRQHSAYTIEWYQQQPLKPPKYVMEVKKDGSHSTGDGIPDRFSGSSSGADRYLSISNIQPEDEAIYICGVGDTIKEHFVFGGGTKVTVLG
0.05

Tell me OD450 reported for F2.151.13 human-murine chimeric antibody (antibody, human IgG1, lambda, V domains shown, Chimeric, human IgG1 / lambda) VH: QVHLQQPGTELMKPGASVKLSCKATGYTFRDYWLEWVKQRPGHGLEWIGEILPGSGNAYYNEKFKGKATFTADTSSNTAYMQLSSLTTEDSAIYYCARVYSNWYFDAWGKGTTVTVSS VL: QAVVTQESALTTSPGETVTLTCRSSTGAVTTSNYANWVQEKPDHLFTGLIGGTNNQAPGVPARFSGSLIGDKAALTISGAQTEDEAIYFCALWFSNHWVFGGGTKLTVLG
0.07
